Target: Glutamate NMDA receptor
Assay: Displacement of [3H]Ro-256981 from NMDA receptor in rat forebrain membrane
ASSAY_METRIC: Ki (nM)

> print(dat)
                               input.smiles  units  measured
1  Cc1ccc(OC2CCN(C(=O)c3cc(=O)c4cc(O)ccc4[nH]3)CC2)cc1     nM       4.2

---

Target: Glutamate NMDA receptor
Assay: Inhibition of NMDA receptor in rat cortical cells assessed as NMDA-evoked increase in intracellular calcium level
pIC50: −log10 of the molar value.
ASSAY_METRIC: pIC50

> print(dat)
                                input.smiles  measured
 1  O=C(c1nc(=O)c2cc(O)ccc2[nH]1)N1CCC(Cc2ccccc2)CC1      6.50
 2  Cc1ccc(CC2CCN(C(=O)c3cc(=O)c4cc(O)ccc4[nH]3)CC2)cc1      7.96
 3  O=C(c1cc(=O)c2cc(O)ccc2[nH]1)N1CCC(Oc2ccccc2)CC1      7.30
 4  O=C(c1cc(=O)c2cc3[nH]c(=O)oc3cc2[nH]1)N1CCC(Cc2ccccc2)CC1      7.66
 5  O=C(c1cc2cc(O)ccc2[nH]1)N1CCC(Cc2ccccc2)CC1      7.60
 6  O=C(c1cc(=O)c2cc(O)ccc2[nH]1)N1CCC(Cc2ccccc2)CC1      8.04
 7  O=C(c1cc(=O)c2cc(O)ccc2[nH]1)N1CCC(Oc2ccc(Cl)cc2)CC1      8.15
 8  O=C(c1cc(=O)c2cc(O)ccc2[nH]1)N1CCC(Cc2ccc(Cl)cc2)CC1      8.04
 9  O=C(c1cc(=O)c2cc(O)ccc2[nH]1)N1CCC(Cc2ccc(F)cc2)CC1      8.06
10  Cc1ccc(OC2CCN(C(=O)c3cc(=O)c4cc(O)ccc4[nH]3)CC2)cc1      8.21
